Reported minimal inhibitory concentration (MIC) values for a set of compounds
tested on: lepB(P29S) S. aureus 8325; experiment: microbe, parasite or virus in culture; format: cell-based, Staphylococcus aureus; conditions: Table 3, P3 position derivatives; unit not given

Illustrative cases are given below, each with its answer.
| compound | minimal inhibitory concentration (MIC) |
| --- | --- |
| CCCCCCCCCCCCCCCC(=O)N(C)[C@H](CO)C(=O)N[C@H](C)C(=O)NCC(=O)N(C)[C@@H]1C(=O)N[C@@H](CCCO)C(=O)N[C@H](C(=O)O)Cc2ccc(O)c(c2)-c2cc1ccc2O [Compound 31] | >64 |
| CCCCCCCCCCCCCCCC(=O)N(C)[C@H](CO)C(=O)N[C@H](C)C(=O)NCC(=O)N(C)[C@@H]1C(=O)NC(CC(F)(F)F)C(=O)N[C@H](C(=O)O)Cc2ccc(O)c(c2)-c2cc1ccc2O (stereo partly drawn) [Compound 33] | >64 |

Attention now turns to another entry.
So for CCCCCCCCCCCCCCCC(=O)N(C)[C@H](CO)C(=O)N[C@H](C)C(=O)NCC(=O)N(C)[C@@H]1C(=O)N[C@@H](CCCCO)C(=O)N[C@H](C(=O)O)Cc2ccc(O)c(c2)-c2cc1ccc2O [Compound 32] , the logged minimal inhibitory concentration (MIC) turned out to be >64
